Data provenance is patent US20230242611A1.

systemName: T1, MAGE-A1 278-286 with alanine at position 8 peptide on HLA-A*02:01 (human)
T1 peptide: KVLEYVIAV
measurementDescription: cytokine release
assayReadout: binding result

- hT27 TCR m3 (beta chain T63I) (TCR, V domains shown) Valpha: GEDVEQSLFLSVREGDSSVINCTYTDSSSTYLYWYKQEPGAGLQLLTYIFSNMDMKQDQRLTVLLNKKDKHLSLRIADTQTGDSAIYFCAGSGGGTDKLIFGTGTRLQVFP Vbeta: GAVVSQHPSWVICKSGTSVKIECRSLDFQATTMFWYRQFPKQSLMLMAISNEGSKATYEQGVEKDKFLINHASLTLSTLTVTSAHPEDSSFYICSAREPGQGPYEQYFGPGTRLTVT: recognises
- hT27 TCR m2 (beta chain S109N) (TCR, V domains shown) Valpha: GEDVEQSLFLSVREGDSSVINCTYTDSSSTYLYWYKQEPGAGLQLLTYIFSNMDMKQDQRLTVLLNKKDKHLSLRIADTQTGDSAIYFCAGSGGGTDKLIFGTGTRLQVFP Vbeta: GAVVSQHPSWVICKSGTSVKIECRSLDFQATTMFWYRQFPKQSLMLMATSNEGSKATYEQGVEKDKFLINHASLTLSTLTVTSAHPEDSSFYICNAREPGQGPYEQYFGPGTRLTVT: recognises
- hT27 TCR m8 (alpha chain G125V) (TCR, V domains shown) Valpha: GEDVEQSLFLSVREGDSSVINCTYTDSSSTYLYWYKQEPGAGLQLLTYIFSNMDMKQDQRLTVLLNKKDKHLSLRIADTQTGDSAIYFCAGSGGGTDKLIFGTVTRLQVFP Vbeta: GAVVSQHPSWVICKSGTSVKIECRSLDFQATTMFWYRQFPKQSLMLMATSNEGSKATYEQGVEKDKFLINHASLTLSTLTVTSAHPEDSSFYICSAREPGQGPYEQYFGPGTRLTVT: recognises
